ASSAYED_SYSTEM: UniProtKB P20292
Sequence (P20292 whole entry): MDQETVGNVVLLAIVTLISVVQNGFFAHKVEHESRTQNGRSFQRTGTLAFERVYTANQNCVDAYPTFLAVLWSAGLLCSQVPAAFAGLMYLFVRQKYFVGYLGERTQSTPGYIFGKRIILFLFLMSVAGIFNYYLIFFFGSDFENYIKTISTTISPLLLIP
ASSAY_INFO: Inhibition of FLAP in human monocyte assessed as reduction in all-trans isomers of LTB4 and 5-HETE formation preincubated with enzyme for 15 mins followed by Ca2+ ionophore-A23187 and measured after 10 mins by HPLC analysis
Assay type: cell-based
pIC50: −log10 of the molar value.
MEASURED_ATTRIBUTE: pIC50

[[record]]
sample_smiles = "O=C(O)c1noc(-c2ccc(OCc3ccc4ccccc4n3)cc2)c1-c1ccc(Cl)cc1"
reported = 8.15

